tested on: IGROV1 ovarian; assay: NCI-60 one-dose screen, 48 h; conditions: 10 µM unless noted
Compounds without any hit were thinned out: in the full panel of roughly 83,000, 20% have a hit. Calls of active or inactive are those of the source. The calls were made as follows: active = growth percent below 10; inactive = the rest.
Outcomes: YES = active, NO = inactive

> print(dat)
                                    compound  class.name
 1  CCc1ccc(Oc2c(-c3ccc(OCc4ccc(Cl)cc4)cc3O)n[nH]c2C(F)(F)F)cc1          NO
 2  Cc1c(C(=O)NCCCc2ccccc2)sc2ncc(-c3ccc(Br)cc3)n12          NO
 3  COc1cc(/C=C/c2c(C(C)=O)c(C)nc3ccccc23)cc(OC)c1OC          NO
 4  c1cc2nc(-c3cn[nH]c3)c3c(c2cc1-c1cn[nH]c1)C1CCC3C1 (stereo not given)          NO
 5  COc1ccc(OC)c(/C=C2\Oc3cc(OCCN4CCC(Cc5ccccc5)CC4)ccc3C2=O)c1          NO
 6       CCOC(=O)c1nc(Nc2ccc(C(C)=O)cc2)sc1C          NO
 7        c1ccc(Cc2nn3cc(-c4ccccc4)nc3s2)cc1          NO
 8  Cc1nc2ccccc2c(/C=C/c2ccc(Cl)cc2)c1C(=O)/C=C/c1ccc(C(F)(F)F)cc1         YES
 9  COc1c(B(O)O)cc(C)cc1-c1nc2ccc3[nH]ncc3c2c2c1CCCC2          NO
10  N/C(=N\c1nc2ccccc2s1)NC(=O)Nc1cccc2ccccc12          NO

* * *

test system: T-47D breast; test: NCI-60 one-dose screen, 48 h (100 = growth as untreated, 0 = no growth, -100 = all killed); details: 10 µM unless noted
Compounds without any hit were thinned out: in the full panel of roughly 83,000, 20% have a hit.
recorded.metric: growth (%)

> print(dat)
                                    compound  recorded.metric  number
 1  CN(C)CCNc1nc2ccccc2c2c(=O)c3cc(F)ccc3sc12           growth    66.1
 2  Cc1cccc(OCC(O)CN2CCN(c3ccc(Cl)cc3)CC2)c1 (stereo unspecified)           growth     107
 3  CCOC(=O)C1=C(N)Oc2c(sc3c(C)cccc23)C1c1ccc(OC)cc1 (stereo unspecified)           growth      26
 4  COc1cc(Nc2nc(NCCN)nc3cc[nH]c(=O)c23)cc(OC)c1           growth     122
 5  C#C[C@]1(O)CC[C@H]2[C@@H]3CC=C4c5sc(Nc6ccccc6)nc5CC[C@]4(C)[C@H]3CC[C@@]21C           growth    28.6
 6  C=CCNc1ccc2c3c(cccc13)C(=O)N(N1C(=O)c3cccc4cccc(c34)C1=O)C2=O           growth    96.5
 7  COc1cc(-c2nc3sccn3c2-c2ccnc(NCCCNS(=O)(=O)c3ccc(F)cc3)n2)ccc1F           growth    15.5
 8            O=C(Nc1ccc(I)cc1F)c1cc(I)ccc1O           growth  -0.561
 9  Cc1nc(NC(=O)COc2ccc(/C=C3\Cc4ccc(Cl)cc4C3=O)cc2)sc1C           growth     109
10  NCCCNc1nc2ccccc2c2c(=O)c3cc(OC(F)(F)F)ccc3sc12           growth   -9.69
11  COc1cc(C(=O)c2cc(C)c3[nH]c4ccc(O)cc4c3c2C)cc(OC)c1OC           growth    38.5
12       O=[N+]([O-])c1ccccc1NCSc1ccc(Cl)cc1           growth    93.3
13    COc1ccc(/C=C(/C#N)n2nnc3cccc(F)c32)cc1           growth    9.54
14              O=C(Nc1ccc(Cl)cc1F)c1ccccc1O           growth    29.9
15       CC(=O)c1ccc(Nc2nc(C(C)=O)c(C)s2)cc1           growth    92.4
16  CC/C=C\C[C@@H](O)C/C=C1/C(=O)C=C[C@H]1C/C=C\CCCC(=O)OC           growth    15.6
17  COc1nc2ccccc2cc1-c1nc2c(cnn2-c2ccccc2)c(=O)[nH]1           growth    50.1
18  NCCCNc1nc2ccccc2c2c(=O)c3cc(C(F)(F)F)ccc3sc12           growth    27.2
19  COc1ccc(OC)c(/C=C/C(=O)N/N=C/c2ccccc2)c1           growth    39.7
20  C[N+]1=C(/C=C/c2ccc(O)c3ncccc23)C(C)(C)c2ccccc21           growth    23.7
21  NCCCNc1nc2ccc(Cl)cc2c2c(=O)c3cc(F)ccc3sc12           growth    76.3
